protocol.details: in vitro
assay.setup: human
readout: CC50 at 6 days

Example entries begin here.
In [3]: df
Out[3]:
                                   molecule  measured_result
0  O=S(=O)(c1cc(Cl)c(O)c(Cl)c1)c1cc(Cl)c(O)c(Cl)c1 [AB00275543]       > 25 µg/mL
1  C=CCN1C(=O)C2(C(C#N)=C(N)Oc3ccccc32)C(C(C)=O)=C1C (stereo not drawn) [AB00364858]       > 25 µg/mL

Continue with the molecule presented below.
Summary for this molecule, Cc1cccc(-n2c(Cc3cccc([N+](=O)[O-])c3)nc3ccccc3c2=O)c1 [AB00297463] : CC50 at 6 days is > 25 µg/mL

###

protocol.details: cytotoxicity assay (percent viability of HEp-2 cells, Cell Titer-Glo)
assay.setup: human, HEp-2 cells
readout: CC50 at 6 days

Solved cases (2 shown):
>>> df
                                   compound         readout  measured_result
0  O=C(CCN1C(=O)c2cccc3cccc(c23)C1=O)N1CCc2ccccc2C1 [AB00315918]  CC50 at 6 days       > 25 µg/mL
1  Cc1sc(NC(=O)c2c(F)cccc2F)nc1-c1ccccc1 [AB00309154]  CC50 at 6 days       > 25 µg/mL

Short answer for Oc1ccc(O)cc1 [AB00053361] : CC50 at 6 days was > 50 µM

Short answer for O=S(=O)(Nc1ccc(-c2cn3cccnc3n2)cc1)c1cc(Cl)ccc1Cl [AB00370838] : CC50 at 6 days was > 25 µg/mL

Per the record, Clc1ccccc1OCc1noc(-c2cccs2)n1 [AB00877365] has CC50 at 6 days of > 50 µM

Kindly note the recorded CC50 at 6 days for CCCCC(=O)Nc1cccc(NC(=O)c2ccccc2OC)c1 [AB00317410] , which is > 25 µg/mL

###

Tested on: RSV, Long strain
protocol.details: virus titer Reduction (VTR) assay, progeny virus TCID50 in HEp-2 cells
Format: cell-based, respiratory syncytial virus (RSV)
assay.setup: human respiratory syncytial virus, 48 h, 25 ug/ml compound, read-out: TCID-50 Reduction 25 @ ug/ml
Listing of recorded log reduction at 25 µg/mL by entry.
Number, no unit, nothing else.

Sample answers from the record:
>>> df
                                   molecule  measured_result
0  CSc1ccccc1C(=O)Nc1ccc(S(=O)(=O)Nc2cccc(Cl)c2Cl)cc1             6.57
1   Cc1ccccc1C(=O)N1CCCN(C(=O)c2ccccc2C)CC1             2.39
2     Cc1sc(NC(=O)c2c(F)cccc2F)nc1-c1ccccc1             1.88
3  Cc1cc(C)cc(C(=O)Nc2cccc(NC(=O)c3ccccc3C)c2)c1             3.43
4  COc1ccc(CNCCC(c2ccc(F)cc2)c2ccco2)cc1OC (stereo not drawn)             5.48

// molecule CCCSC1=C(C#N)C(c2ccco2)C(C(=O)Nc2ccccc2)=C(C)N1 (stereo not drawn) , assay RSV, Long strain, log reduction at 25 µg/mL value: 3.57

The molecule "Cc1ccc(N(CCCCN2C(=O)c3ccccc3C2=O)C(=O)c2cccc([N+](=O)[O-])c2)cc1" on RSV, Long strain: log reduction at 25 µg/mL was 1.88

Form: item COCCn1c(SC(C)C(=O)Nc2cccc(C(F)(F)F)c2)nc2ccccc21 (stereo not drawn) ; test system RSV, Long strain; log reduction at 25 µg/mL: 4.42

Item "Oc1ccc(Nc2nc(-c3ccc(O)cc3)cs2)cc1" ; assay system RSV, Long strain; log reduction at 25 µg/mL reported as 2.55
